Data provenance is patent US6866837B2.

test: in vivo; conditions: rat, blood, 0.01 ug, total radioactivity;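 note: radiolabelled ligand targeting bombesin receptors, given by intravenous injection at varied injected mass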
measurement.name: tissue uptake at 48 h (%ID/g)
Answer in %ID/g, number only, no unit symbol.

Memo: CSCC[C@H](NC(=O)[C@H](CC(C)C)NC(=O)[C@H](Cc1c[nH]cn1)NC(=O)CNC(=O)[C@@H](NC(=O)[C@H](C)NC(=O)[C@H](Cc1c[nH]c2ccccc12)NC(=O)[C@H](CCC(N)=O)NC(=O)[C@H](CC(N)=O)NC(=O)CNC(=O)[C@H](Cc1ccc(O)cc1)NC(=O)[C@H](CCCNC(=N)N)NC(=O)[C@H](CCC(N)=O)NC(=O)[C@@H]1CCCN1C(=O)CN(CCN(CCN(CC(=O)O)CC(=O)O)CC(=O)O)CC(=O)O)C(C)C)C(N)=O [[^111In-DTPA^0, Pro^1, Tyr^4] bombesin, metal not drawn] , reported tissue uptake at 48 h: 0.0009

---

test: in vivo; conditions: rat, colon, 0.025 ug, total radioactivity
measurement.name: tissue uptake at 48 h (%ID/g)
Answer in %ID/g, number only, no unit symbol.

Memo: CSCC[C@H](NC(=O)[C@H](CC(C)C)NC(=O)[C@H](Cc1c[nH]cn1)NC(=O)CNC(=O)[C@@H](NC(=O)[C@H](C)NC(=O)[C@H](Cc1c[nH]c2ccccc12)NC(=O)[C@H](CCC(N)=O)NC(=O)[C@H](CC(N)=O)NC(=O)CNC(=O)[C@H](Cc1ccc(O)cc1)NC(=O)[C@H](CCCNC(=N)N)NC(=O)[C@H](CCC(N)=O)NC(=O)[C@@H]1CCCN1C(=O)CN(CCN(CCN(CC(=O)O)CC(=O)O)CC(=O)O)CC(=O)O)C(C)C)C(N)=O [[^111In-DTPA^0, Pro^1, Tyr^4] bombesin, metal not drawn] , reported tissue uptake at 48 h: 0.063

---

assay: in vivo; conditions: rat, blood, 0.5 ug, total radioactivity
measurement.name: tissue uptake at 48 h (%ID/g)
Answer in %ID/g, number only, no unit symbol.

Memo: CSCC[C@H](NC(=O)[C@H](CC(C)C)NC(=O)[C@H](Cc1c[nH]cn1)NC(=O)CNC(=O)[C@@H](NC(=O)[C@H](C)NC(=O)[C@H](Cc1c[nH]c2ccccc12)NC(=O)[C@H](CCC(N)=O)NC(=O)[C@H](CC(N)=O)NC(=O)CNC(=O)[C@H](Cc1ccc(O)cc1)NC(=O)[C@H](CCCNC(=N)N)NC(=O)[C@H](CCC(N)=O)NC(=O)[C@@H]1CCCN1C(=O)CN(CCN(CCN(CC(=O)O)CC(=O)O)CC(=O)O)CC(=O)O)C(C)C)C(N)=O [[^111In-DTPA^0, Pro^1, Tyr^4] bombesin, metal not drawn] , reported tissue uptake at 48 h: 0.0008

---

assay: in vivo; conditions: rat, colon, 0.5 ug, total radioactivity
measurement.name: tissue uptake at 48 h (%ID/g)
Answer in %ID/g, number only, no unit symbol.

Memo: CSCC[C@H](NC(=O)[C@H](CC(C)C)NC(=O)[C@H](Cc1c[nH]cn1)NC(=O)CNC(=O)[C@@H](NC(=O)[C@H](C)NC(=O)[C@H](Cc1c[nH]c2ccccc12)NC(=O)[C@H](CCC(N)=O)NC(=O)[C@H](CC(N)=O)NC(=O)CNC(=O)[C@H](Cc1ccc(O)cc1)NC(=O)[C@H](CCCNC(=N)N)NC(=O)[C@H](CCC(N)=O)NC(=O)[C@@H]1CCCN1C(=O)CN(CCN(CCN(CC(=O)O)CC(=O)O)CC(=O)O)CC(=O)O)C(C)C)C(N)=O [[^111In-DTPA^0, Pro^1, Tyr^4] bombesin, metal not drawn] , reported tissue uptake at 48 h: 0.036
